- test_summary: qHTS of pediatric cancer cell lines to identify multiple opportunities for drug repurposing: Primary screen for BT-12 cells (AID 1347101); note: nearly all actives have a fitted effect of over 25% in size; note: potency is the fitted concentration of half-maximal effect
- assay_setup: BT-12 viability, CellTiter-Glo luminescence, 48 h; series mostly up to 57.3 µM
Inconclusive results are not listed. The source made the active and inactive calls. Calls come from the whole dose curve; as a rule, active = well fitted cell-killing curve with a large enough effect; inconclusive = small, poorly fitted or top-dose-only effect; inactive = flat fitted curve, though single readings scatter.
metric: Potency

>>> print(df.to_string())
                                   molecule        data_value
0  CNC(=O)c1ccc2cc(C3(O)CCn4cncc43)ccc2c1 (stereo not given)          inactive
1  Clc1ccc(C(c2ccc(Cl)cc2)n2cc[n+](CC(OCc3ccc(Cl)cc3Cl)c3ccc(Cl)cc3Cl)c2)cc1 (stereo not given)  21.7 µM (active)
2  CC1CCC(C(=O)N(c2cc(C#CC(C)(C)C)sc2C(=O)O)C2CCC(O)CC2)CC1 (stereo not given)          inactive
3                     O=C(O)Cc1cccc2ccccc12          inactive
4  O=c1cc(N2CCOCC2)oc2c(-c3cccc4c3sc3ccccc34)cccc12  24.3 µM (active)

Potency for COc1cccc2c1CCCC2CCCN1CCN(C2CCCCC2)CC1 (stereo not given) ?
24.3 µM (active)

Potency for Oc1ccc(C2CCN(c3ccnc4ccccc34)CC2)cc1O ?
7.69 µM (active)

Potency for COc1ccc(-c2nc(N3CCOCC3)c3sc(CN(C)c4ncc(C(=O)NO)cn4)cc3n2)cn1 ?
0.0086 µM (active)

Potency for NC(N)=Nc1nc(CSCC/C(N)=N/S(N)(=O)=O)cs1 ?
inactive

Potency for COC1CCC(N(C(=O)C2CCC(C)CC2)c2cc(C3=CCCCC3)sc2C(=O)O)CC1 (stereo not given) ?
inactive

// data source = PubChem BioAssay (NCATS)
